Reference for the values: patent JP2014141434A

# Target Under Test: T1, rROBO4−ECD (ヒトROBO4細胞外領域ポリペプチド) (human, UniProt Q8WZ75 28-461)
# T1 construct: It was cloned in pEF6/V5-His-TOPO; also called ヒトROBO4−ECD; rROBO4-ECD
# T1 sequence: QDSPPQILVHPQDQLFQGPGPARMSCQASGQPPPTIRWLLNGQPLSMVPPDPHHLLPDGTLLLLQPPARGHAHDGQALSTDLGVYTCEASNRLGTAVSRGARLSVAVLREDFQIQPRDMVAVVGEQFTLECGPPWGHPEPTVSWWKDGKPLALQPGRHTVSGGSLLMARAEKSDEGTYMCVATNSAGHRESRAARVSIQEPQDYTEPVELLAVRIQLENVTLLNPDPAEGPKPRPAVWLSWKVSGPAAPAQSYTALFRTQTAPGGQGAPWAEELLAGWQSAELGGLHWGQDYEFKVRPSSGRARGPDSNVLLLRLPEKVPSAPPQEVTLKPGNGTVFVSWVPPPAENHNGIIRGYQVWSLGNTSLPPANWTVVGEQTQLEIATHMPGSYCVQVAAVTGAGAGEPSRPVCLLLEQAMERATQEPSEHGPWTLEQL
# Protocol Details: SPR, Biacore 3000; antibody captured by anti-human IgG on CM5 chip, rROBO4-ECD (0.1-200 nM) as analyte, 1:1 model
Measure Name: Kd (nM)

[[record]]
binder = "ヒト化MAb1抗体 H−1143 (antibody, human IgG2, kappa, V domains shown, Humanised IgG2 / kappa; also called H-1143; hMAb1-H2 / hMAb1-L2) VH: EVQLVESGGGLVQPGGSLRLSCAASGFTFSTYAMSWVRQAPGKGLEWVATISQGGTYTYYPDSVKGRFTISRDNAKNTLYLQMNSLRAEDTAVYYCARLIYYDYLDYWGQGTLVTVSS VL: DIVMTQSPLSLPVTLGEPASISCRSSQSLENENKNLYLNWYLQKPGQSPQLLIYRVSNRFSGVPDRFSGSGSGTDFTLKISRVEAEDVGVYYCLQVTHVPWTFGPGTKVDIKR"
recorded_value = 3.5

[[record]]
binder = "ヒト化MAb1抗体 H−2140 (antibody, human IgG2, kappa, V domains shown, Humanised IgG2 / kappa; also called H-2140; hMAb1-H4 / hMAb1-L1) VH: EVQLVESGGGLVQPGGSLRLSCAASGFTFSTYAMSWVRQAPGKRLEWVATISQGGTYTYYPDSVKGRFTISRDNAKNTLYLQMNSLRAEDTAVYYCARLIYYDYLDYWGQGTLVTVSS VL: DIVMTQSPLSLPVTLGEPASISCRSSQSLENSNGNTYLNWYLQKPGQSPQLLIYRVSNRFSGVPDRFSGSGSGTDFTLKISRVEAEDVGVYYCLQVTHVPWTFGPGTKVDIKR"
recorded_value = 1.8

[[record]]
binder = "ヒト化MAb1抗体 H−2143 (antibody, human IgG2, kappa, V domains shown, Humanised IgG2 / kappa; also called H-2143; hMAb1-H4 / hMAb1-L2) VH: EVQLVESGGGLVQPGGSLRLSCAASGFTFSTYAMSWVRQAPGKRLEWVATISQGGTYTYYPDSVKGRFTISRDNAKNTLYLQMNSLRAEDTAVYYCARLIYYDYLDYWGQGTLVTVSS VL: DIVMTQSPLSLPVTLGEPASISCRSSQSLENENKNLYLNWYLQKPGQSPQLLIYRVSNRFSGVPDRFSGSGSGTDFTLKISRVEAEDVGVYYCLQVTHVPWTFGPGTKVDIKR"
recorded_value = 1.7

[[record]]
binder = "ヒト化MAb1抗体 H−2040 (antibody, human IgG2, kappa, V domains shown, Humanised IgG2 / kappa; also called H-2040; hMAb1-H3 / hMAb1-L1) VH: EVQLVESGGGLVQPGGSLRLSCAASGFTFSTYAMSWVRQAPGKRLEWVATISNGGTYTYYPDSVKGRFTISRDNAKNTLYLQMNSLRAEDTAVYYCARLIYYDYLDYWGQGTLVTVSS VL: DIVMTQSPLSLPVTLGEPASISCRSSQSLENSNGNTYLNWYLQKPGQSPQLLIYRVSNRFSGVPDRFSGSGSGTDFTLKISRVEAEDVGVYYCLQVTHVPWTFGPGTKVDIKR"
recorded_value = 0.4

[[record]]
binder = "ヒト化MAb1抗体 H−1140 (antibody, human IgG2, kappa, V domains shown, Humanised IgG2 / kappa; also called H-1140; hMAb1-H2 / hMAb1-L1) VH: EVQLVESGGGLVQPGGSLRLSCAASGFTFSTYAMSWVRQAPGKGLEWVATISQGGTYTYYPDSVKGRFTISRDNAKNTLYLQMNSLRAEDTAVYYCARLIYYDYLDYWGQGTLVTVSS VL: DIVMTQSPLSLPVTLGEPASISCRSSQSLENSNGNTYLNWYLQKPGQSPQLLIYRVSNRFSGVPDRFSGSGSGTDFTLKISRVEAEDVGVYYCLQVTHVPWTFGPGTKVDIKR"
recorded_value = 3.9

[[record]]
binder = "ヒト化MAb1抗体 H−1040 (antibody, human IgG2, kappa, V domains shown, Humanised IgG2 / kappa; also called H-1040; hMAb1-H1 / hMAb1-L1) VH: EVQLVESGGGLVQPGGSLRLSCAASGFTFSTYAMSWVRQAPGKGLEWVATISNGGTYTYYPDSVKGRFTISRDNAKNTLYLQMNSLRAEDTAVYYCARLIYYDYLDYWGQGTLVTVSS VL: DIVMTQSPLSLPVTLGEPASISCRSSQSLENSNGNTYLNWYLQKPGQSPQLLIYRVSNRFSGVPDRFSGSGSGTDFTLKISRVEAEDVGVYYCLQVTHVPWTFGPGTKVDIKR"
recorded_value = 0.41

